Values from ChEMBL document CHEMBL3988442

Test: In vitro enzyme assay to detect hydrolysis of chlorophenol red-beta-D-[…] directly proportional to the number of Toxoplasma stably expressing beta-galactosidase
Type: functional, organism-based, Toxoplasma gondii
Parameters: scale not given: in the data most compounds retested in dose-response had high values
Settings: 50 µM
Out of some 85,000 compounds screened, about 440 (0.52%) showed an effect of 50% or more. What follows is part of a selection rich in strong results, with near analogues and random picks from the rest.
MEASUREMENT_TYPE: Percent Effect (%)

> print(dat)
                                    compound  measured
 1                    O=C1CCOc2cc(O)c(F)cc21    -11.53
 2  CCOC(=O)NC1CCC(NC(=O)C2CCC2)CC1 (configuration not stated)    0.5853
 3             Cc1n[nH]c(SCC(=O)NC2CCCCC2)n1     32.19
 4                    COc1ccc(NC(=O)CN)cc1Cl     1.653
 5  CCc1cccc(NC(=O)C2CCCN(C(C)=O)C2)c1 (configuration not stated)     4.153
 6  CC(C)CC1NCCCNC1=O (configuration not stated)    0.1576
 7         NCCC1CCN(C(=O)Nc2cc(F)cc(F)c2)CC1    -1.616
 8            CN(Cc1cccc(C#N)c1)Cc1ccnc(N)c1     100.1
 9   CCC(C)(O)CCN (configuration not stated)     17.18
10           CC1CCN(C(=O)Cn2cncc(Br)c2=O)CC1     8.773
11  Cc1cnc(CN2CC3(CCOC3)CCC2=O)cn1 (configuration not stated)    -2.648
12  Cc1csc(S(=O)(=O)NCCCOCC2CCCO2)n1 (configuration not stated)    -3.897
13                     Cc1n[nH]cc1CNCc1nccs1    -5.718
14         O=C1CCCN1CCCNS(=O)(=O)c1ccc(Br)s1    -1.058
15  CN(CC1CCOC1)C(=O)c1cc(F)ccc1F (configuration not stated)     12.99
16             COc1ccc(CCC(=O)NCCNC(C)=O)cc1     21.36
17     NC[C@@H]1CC(=O)N(C2CC2)[C@H]1c1ccncc1    -2.453
18          CC(C)(O)CCN1CCC(NC(=O)C2CCC2)CC1     0.697
19                NC(=O)c1ccc(CNC2CC2)c(F)c1    -8.127
20  COCCNC(=O)NC(C)CCc1ccc(O)cc1 (configuration not stated)    -3.348
21                        OCc1nncn1-c1ccccc1     12.09
22             CN(C1CCCCC1)S(=O)(=O)N1CCNCC1     5.411
23                      CN(C)C(=O)C1(N)CCCC1     3.679
24  Cc1ccc2[nH]c(CN3CCC(O)C3)cc(=O)c2c1 (configuration not stated)    -10.62
25             Cc1cccc(NC(=O)NC2CCN(C)CC2)c1    -9.939
26  NC(=O)CN1CCn2cccc2C1c1ccccc1 (configuration not stated)    -16.03
27  Cc1nnc(SCCNC(=O)CC2C=CS(=O)(=O)C2)s1 (configuration not stated)     45.65
28  CCC(NC(=O)CCC(=O)OC)c1ccccc1 (configuration not stated)    -2.759
29  COC1CCN(C(=O)c2cccc(F)c2C)C1 (configuration not stated)     32.95
30           O=C(c1cnsn1)N1CCN(C2CC2)C(=O)C1     91.53
31  Cc1ccc(C(=O)N2C[C@@H](CO)[C@H](N(C)C)C2)cc1     0.785
32        COCc1nn(CC(=O)c2cc(F)ccc2F)c(=O)o1     53.45
33       O=C1CCCCN1c1ccc(S(=O)(=O)NC2CC2)cc1     98.35
34               COCc1nn(Cc2ccccc2Cl)c(=O)o1     10.13
35  O=C(NCC1CCN(C2CC2)C1)c1ccccc1F (configuration not stated)     13.84
36           CC(C)(C)OC(=O)NCc1cc(C(N)=O)co1    -10.17
37  O=C([C@@H]1CCCN1)N1CCCC1c1cccnc1 (some centres not stated)    -9.249
38                 CN(CC(N)=O)Cc1cccc(C#N)c1    -4.421
39             Nc1ccn(-c2ccc(C(F)(F)F)cn2)n1     9.315
40             COCCOCCCNC(=O)c1cn2cc(C)nc2s1     5.507
41     CN(C)[C@H]1CCCCN(C(=O)Cn2cc(Cl)cn2)C1     95.45
42      NCc1ccc(C(=O)N2CCN(C3CC3)C(=O)C2)cc1     8.158

----------
Test: In vitro enzyme assay to detect hydrolysis of chlorophenol red-beta-D-[…] directly proportional to the number of Toxoplasma stably expressing beta-galactosidase
Type: functional, organism-based, Toxoplasma gondii
Set-up: scale not given: in the data most compounds retested in dose-response had high values
Settings: 50 µM
The whole screen tested about 85,000 compounds, of which about 440 (0.52%) showed an effect of 50% or more. The list comes from a sample in which strong results are over-represented; it also holds close analogues and randomly drawn compounds.
MEASUREMENT_TYPE: Percent Effect (%)

> print(dat)
                                    molecule  measured
 1           COc1ccc(-c2cc(NCCO)nc(N)n2)cc1C     29.21
 2                            CNCc1ccc(N)nc1     63.11
 3          CNC(=O)CN(C)C(=O)CCc1ccc(Br)cc1F    0.9597
 4                   NC(=O)CN(CCCO)Cc1ccccc1    -1.308
 5           Cc1nccc(CNc2ncc(C(N)=O)cc2Cl)n1    -11.46
 6  COCC(C)S(=O)(=O)N1CCCCC1 (centres undefined)     6.357
 7   CCC(CC)C(=O)N1C[C@@H](CO)[C@H](N(C)C)C1      16.3
 8          O=C1COc2ccc(NC(=O)c3ccccc3)cc2N1     3.882
 9                            Cn1nccc1C(N)=O       -25
10                         NCCNc1nc2ccccc2s1     19.92
11                      NC1CCN(c2ccccc2F)CC1     -9.36
12                       CN1Cc2cc(O)ccc2C1=O     4.771
13                     CNS(=O)(=O)c1c[nH]cn1    -8.669
14             Cc1ccc(NC(=O)CN2CCNCC2)c(C)c1    -5.303
15        CC(C)(C(=O)N1CCC(N)CC1)c1cccc(F)c1     80.98
16  COCCC1CN(C(=O)c2ccc(C)c(F)c2)CCO1 (centres undefined)    -2.005
17  CCOCC(C)OC(=O)c1ccnn1C (centres undefined)      57.1
18        CN1CCc2nc(NC(=O)c3cncc(Br)c3)sc2C1    -4.285
19               CCOc1cccc(NC(=O)NCCN(C)C)n1    -13.49
20             CN(C)C(=O)c1ccc(Oc2ncccn2)cc1    -3.725
21           CCN1CCc2nc(NC(=O)c3ccncc3)sc2C1     61.16
22                      OC1(Cc2ccccn2)CCNCC1   -0.4203
23          O=C(CCC1CCCCC1)N1CC[S+]([O-])CC1    -3.074
24                  CCN(CC)S(=O)(=O)N1CCNCC1    -3.294
25                         CC1(C)CNCCC(=O)C1    -1.716
26             Cn1cc([C@@H]2OCCC[C@H]2CN)cn1     1.285
27  CNCC(C)CNC(=O)c1ccc(C(N)=O)nc1 (centres undefined)    -13.42
28                             NCc1ccc(N)nc1    -3.539
29                 CC(C)N(C)CC(=O)NCCn1cccc1     7.108
30               COc1ccc(C)cc1NC(=O)Cn1ccnc1     17.12
31               CN(CCOc1ccc(Cl)cc1)CCC(N)=O    -5.352
32         CN(Cc1ccco1)C(=O)Nc1ccc(N(C)C)nc1     24.04
33           CSc1ccc(CNc2ccn(CCC(N)=O)n2)cc1    -4.331
34           Cc1nn(C)c(C)c1CC(=O)NCCc1ccccn1    -1.397
35   CCC(C)C(=O)Nc1nccs1 (centres undefined)    -54.41
36           Cc1cc(CN(C)C(=O)c2cnn(C)c2C)no1   -0.6579
37  NC1CCC(N2C(=O)CCC2=O)CC1 (centres undefined)     15.63
38  CCC1(CN)OCCc2ccccc21 (centres undefined)     4.501
39        NC1CCN(C(=O)C2(c3cccc(F)c3)CC2)CC1     89.65
40                    CC(C)COCCC(=O)Nc1nccs1     97.25
41  CC(NC(=O)NCCCN1CCCC1=O)c1ccco1 (centres undefined)    -1.872
42                 O=C(Nc1cnccn1)c1ccc(F)cn1     3.391
43            CNc1cc(-c2cccc(OC)c2OC)nc(N)n1     50.78
44            CC(C)C(=O)N1CCN(CCc2ccccn2)CC1    -1.569
45  CN(CCC1CCCO1)Cc1ccc(N(C)C)nc1 (centres undefined)     6.718
46         CC(C)COC1CCN(S(=O)(=O)N2CCCC2)CC1     99.18
47     CCN1CCc2nc(NC(=O)c3cc(Br)c[nH]3)sc2C1    -7.995
48                             COCCn1cncc1CO     5.728
49                    Nc1nc2c(s1)Cc1ccccc1-2    -5.547
50                          N#Cc1cccc(CN)c1F     2.806
51  Cc1cc2c(cc1S(=O)(=O)N1CCCC(N)C1)OCO2 (centres undefined)      6.23
52     Cc1noc(C)c1CNC(=O)c1csc(S(N)(=O)=O)c1    -3.715
53  CC(CCc1ccc(O)cc1)NCCN1CCOCC1 (centres undefined)     -1.81
54  Nc1nc(N)nc(CN2CCCC2c2cccs2)n1 (centres undefined)      61.8
